Would you mind telling me the reported Papp of each entry?
Assay: passive permeability, PAMPA, ADME assay (AID 1508612)
Condition Parameters: pH 7.4, 30.0 min, 50.0 µM
Answers are plain numbers, in nm/s.

Cc1cc(NS(=O)(=O)c2ccc(C(=O)NCc3ccc(Cl)c(Cl)c3)cc2)no1 = 462
Cc1ccccc1C(=O)Nc1ccc2c(c1)CCCN2C(=O)c1cccs1 = 6870
COc1ccc(C(=O)CCN(C)C)cc1F = 4100
O=S(=O)(Nc1nccs1)c1ccc(NCc2ccccc2O)cc1 = 11.5
COc1cc(C(=O)NC2CCCc3c2[nH]c2c(Cl)cccc32)cc(OC)c1OC (stereo unspecified) = 5930

# return Papp for each item in the list
1. CCC(Sc1nc2ccccc2c2nc(CCc3c(C)n[nH]c3C)nn12)C(=O)Nc1ccc(F)cc1 (stereo unspecified)
2. CC(=O)c1ccc(N2CCN(S(=O)(=O)c3cc4c(cc3Cl)NC(=O)C4)CC2)cc1
3. CC1=C(C(=O)Nc2ccccc2C)C(c2ccccc2Br)N=C(Nc2nc3ccccc3o2)N1 (stereo unspecified)
4. O=C(Nc1ccccc1)C1CCN(c2ncc(-c3ccc4c(c3)OCCCO4)s2)CC1
5. O=C(Oc1ccc[nH]c1=O)c1cc([N+](=O)[O-])cc([N+](=O)[O-])c1
6. COc1ccc(-c2nc3ccccc3c(=O)n2Cc2ccco2)cc1COc1ccc(NC(C)=O)cc1
7. Cc1ccc(S(=O)(=O)Nc2cncc(C(=O)Nc3nc(-c4ccccc4)cs3)c2)cc1
8. NC(=O)C1CCN(c2nc(-c3ccccc3[N+](=O)[O-])cs2)CC1

output:
379
5580
3900
9170
162
87.2
712
1090

input: Indicate the recorded Papp value for this molecule: NC(=O)C1CCN(c2nc(-c3ccccc3F)cs2)CC1
output: 5580
